# System: HCC-2998 colon
# assay_remarks: NCI-60 one-dose screen, 48 h
# experimental_setup: 10 µM
# Protocol: Growth inhibition of the HCC-2998 human tumor cell line is measured as a screen for anti-cancer activity. Cells are grown in 96 well plates and exposed to the test compound for 48 hours. Compounds are tested at a single concentration, which is 10^-5 M for most compounds. The reported endpoint is percent growth (GI% or GIPRCNT), where numbers from 0 - 100% represent growth inhibition, and numbers from -100% - 0 represent cell death. For example, a value of 40 represents 60% growth inhibition. […]
Compounds without any hit were thinned out: in the full panel of roughly 83,000, 20% have a hit. Active and inactive are the calls of the source. Rule for the calls: active = growth percent below 10; inactive = the rest.
Select the matching outcome among active, inactive

INSERT INTO results (molecule, assigned_category) VALUES
  ('CN(C)c1ccc(/C=C/C(=O)c2ccc(NC(=O)CN3C(=O)NC(C)(c4ccccc4)C3=O)cc2)cc1 (stereo not given)', 'inactive'),
  ('CC(=O)Nc1ccc(-c2cn(-c3cccc(C(=O)Nc4ccc(F)c(C(F)(F)F)c4)c3)nn2)cn1', 'inactive'),
  ('CC(=O)Nc1ccc(-c2cn(-c3cccc(C(=O)Nc4cc(C(F)(F)F)cc(C(F)(F)F)c4)c3)nn2)cn1', 'active'),
  ('C/C(=N\N=C\c1ccc(N(C)C)cc1)c1ccc2c(c1)Nc1ccccc1S2', 'inactive');

*Q* What is the recorded call for this molecule in the test? CC1=C(c2cc(-c3ccc(Cl)cc3)c(C#N)c(N)n2)C(c2ccccc2)NC(=S)N1 (stereo not given)
*A* inactive
